Examples of compounds with documented IC50 follow.
- test.system: human NaV 1.8 channels stably expressed in HEK 293 cells (Homo sapiens (Human), UniProt Q9Y5Y9)
- Sequence (Q9Y5Y9 whole entry): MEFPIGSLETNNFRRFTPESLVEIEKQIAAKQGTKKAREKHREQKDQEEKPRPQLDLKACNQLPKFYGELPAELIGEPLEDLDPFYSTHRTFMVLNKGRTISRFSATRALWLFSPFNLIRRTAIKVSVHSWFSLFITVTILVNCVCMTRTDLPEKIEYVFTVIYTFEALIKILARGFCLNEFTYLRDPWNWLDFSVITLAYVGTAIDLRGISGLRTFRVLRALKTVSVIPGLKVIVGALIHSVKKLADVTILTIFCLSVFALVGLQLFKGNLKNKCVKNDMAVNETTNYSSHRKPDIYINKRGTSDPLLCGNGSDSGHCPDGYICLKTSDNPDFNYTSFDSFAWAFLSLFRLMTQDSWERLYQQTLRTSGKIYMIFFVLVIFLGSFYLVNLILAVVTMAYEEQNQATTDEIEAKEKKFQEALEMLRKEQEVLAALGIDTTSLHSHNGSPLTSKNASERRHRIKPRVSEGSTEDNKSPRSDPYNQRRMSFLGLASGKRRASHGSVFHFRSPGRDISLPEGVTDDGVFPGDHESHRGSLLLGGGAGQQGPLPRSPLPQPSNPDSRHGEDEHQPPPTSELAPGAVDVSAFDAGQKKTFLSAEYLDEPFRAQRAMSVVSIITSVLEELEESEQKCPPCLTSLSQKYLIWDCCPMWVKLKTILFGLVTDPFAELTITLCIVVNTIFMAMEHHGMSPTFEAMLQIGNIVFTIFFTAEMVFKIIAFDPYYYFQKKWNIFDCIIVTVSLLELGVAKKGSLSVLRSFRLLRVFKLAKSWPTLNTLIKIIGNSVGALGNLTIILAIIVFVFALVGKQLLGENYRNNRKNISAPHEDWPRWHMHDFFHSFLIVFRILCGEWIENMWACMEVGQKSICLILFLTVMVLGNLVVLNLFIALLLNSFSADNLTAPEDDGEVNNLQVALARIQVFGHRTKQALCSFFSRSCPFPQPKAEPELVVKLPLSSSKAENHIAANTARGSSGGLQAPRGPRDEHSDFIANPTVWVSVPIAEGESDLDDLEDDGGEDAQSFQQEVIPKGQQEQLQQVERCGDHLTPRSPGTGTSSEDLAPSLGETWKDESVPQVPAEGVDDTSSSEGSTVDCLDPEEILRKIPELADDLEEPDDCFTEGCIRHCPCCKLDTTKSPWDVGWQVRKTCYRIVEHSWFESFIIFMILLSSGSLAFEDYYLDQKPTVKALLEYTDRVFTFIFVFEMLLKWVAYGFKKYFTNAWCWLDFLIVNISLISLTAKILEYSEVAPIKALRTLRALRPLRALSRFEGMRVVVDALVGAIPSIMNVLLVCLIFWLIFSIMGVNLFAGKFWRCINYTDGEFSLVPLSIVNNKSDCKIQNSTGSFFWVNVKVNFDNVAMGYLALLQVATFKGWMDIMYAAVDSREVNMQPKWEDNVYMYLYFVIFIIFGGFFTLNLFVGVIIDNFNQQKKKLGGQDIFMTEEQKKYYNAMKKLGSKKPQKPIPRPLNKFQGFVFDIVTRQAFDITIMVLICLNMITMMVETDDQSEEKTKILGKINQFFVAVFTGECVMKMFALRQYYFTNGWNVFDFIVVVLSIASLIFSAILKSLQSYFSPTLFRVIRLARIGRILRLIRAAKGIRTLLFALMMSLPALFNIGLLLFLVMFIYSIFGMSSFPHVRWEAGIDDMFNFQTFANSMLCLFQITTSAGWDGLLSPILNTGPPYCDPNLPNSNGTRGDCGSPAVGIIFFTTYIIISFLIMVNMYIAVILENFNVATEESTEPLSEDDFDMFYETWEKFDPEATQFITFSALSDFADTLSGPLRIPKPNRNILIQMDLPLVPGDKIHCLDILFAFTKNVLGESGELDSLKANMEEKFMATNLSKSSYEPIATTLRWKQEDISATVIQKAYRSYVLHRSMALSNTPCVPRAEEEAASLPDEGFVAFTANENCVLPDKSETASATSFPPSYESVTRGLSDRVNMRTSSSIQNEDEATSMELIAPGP
- experiment.summary: Nav1.8 Qube automated patch-clamp assay
- Assay type: cell-based
- condition.notes: human NaV1.8 in HEK 293 cells, whole-cell voltage clamp, room temperature; read-out: IC50 values (nM) for Examples in the Nav1.8 Qube Assay
readout: IC50 (nM)

{"compound": "C[C@@H]1C(=O)NCCN1C(=O)NC(c1ccc(F)c(Cl)c1)c1cccc(OC(F)F)n1 (single isomer, unassigned) [Example 72A]", "readout": "IC50", "experimental.result": 195}
{"compound": "C[C@@H]1C(=O)NCCN1C(=O)NC(c1ccc(OC(F)(F)F)nc1)c1ccc(F)c(C(F)(F)F)n1 (single isomer, unassigned) [Example 51A]", "readout": "IC50", "experimental.result": 129}
{"compound": "C[C@@H]1C(=O)NCCN1C(=O)NC(c1ccc(OC(F)(F)F)c(Cl)c1)c1coc(C(F)(F)F)n1 (single isomer, unassigned) [Example 64A]", "readout": "IC50", "experimental.result": 4.96}

---

- test.system: human NaV 1.8 channels stably expressed in HEK 293 cells (Homo sapiens (Human), UniProt Q9Y5Y9)
- experiment.summary: Nav1.8 Qube automated patch-clamp assay
- Format: cell-based
- condition.notes: human NaV1.8 in HEK 293 cells, whole-cell voltage clamp, room temperature; read-out: IC50 values (nM) for Examples in the Nav1.8 Qube Assay
- Experimental: Compounds were tested on human NaV 1.8 and NaV1.5 channels stably expressed in human embryo kidney (HEK) 293 cells. […] For all Qube® experiments offline analysis was used to determine percent inhibition as a function of drug concentration. IC50 values were determined by fitting to the Hill equation.
Listed next: entries and their corresponding log10 of IC50.
readout: log10 of IC50 (log10 of the value in nM)

{"compound": "C[C@@H]1C(=O)NCCN1C(=O)NC(c1ccc(Cl)c(C(F)(F)F)n1)c1ccc(F)c(Cl)c1F (single isomer, unassigned) [Example 77A]", "log10 of IC50": 0.66}
{"compound": "O=C1NCCN(C(=O)NC(c2cnc(C(F)(F)F)nc2)c2ccc(F)c(Cl)c2F)C1C1CC1 (single isomer, unassigned) [Example 41B]", "log10 of IC50": 0.69}
{"compound": "C[C@@H]1C(=O)NCCN1C(=O)NC(c1ccc(OC(F)(F)F)c(F)c1)c1ccc(C#N)c(C(F)(F)F)n1 (single isomer, unassigned) [Example 61B]", "log10 of IC50": 0.58}
{"compound": "C[C@@H]1C(=O)NCCN1C(=O)NC(c1ccc(OC(F)(F)F)cc1)c1cc(C(F)(F)F)n[nH]1 (single isomer, unassigned) [Example 87A]", "log10 of IC50": 2.09}
{"compound": "C[C@@H]1C(=O)NCCN1C(=O)NC(c1ccc(OC(F)(F)F)c(Cl)c1)c1cnc(C(F)(F)F)c(Cl)c1 (single isomer, unassigned) [Example 22A]", "log10 of IC50": -0.51}
{"compound": "C[C@@H]1C(=O)NCCN1C(=O)NC(c1ccc(OC2CC2)c(F)c1)c1ccc(F)c(C(F)(F)F)n1 (single isomer, unassigned) [Example 59A]", "log10 of IC50": 0.52}
{"compound": "C[C@@H]1C(=O)NCCN1C(=O)NC(c1ccc(OCC(F)(F)F)nc1)c1ccc(F)c(C(F)(F)F)n1 (single isomer, unassigned) [Example 50A]", "log10 of IC50": 1.87}
{"compound": "C[C@@H]1C(=O)NCCN1C(=O)NC(c1ccc(F)c(Cl)c1)c1ccn(C(F)F)n1 (single isomer, unassigned) [Example 66B]", "log10 of IC50": 1.92}
{"compound": "C[C@@H]1C(=O)NCCN1C(=O)NC(c1ccc(OCC(F)(F)F)nc1)c1ccc(F)c(Cl)c1 (single isomer, unassigned) [Example 3A]", "log10 of IC50": 0.35}
{"compound": "C[C@@H]1C(=O)NCCN1C(=O)NC(c1ccc(F)c(C(F)(F)F)n1)c1ccc(F)c(Cl)c1F (single isomer, unassigned) [Example 60B]", "log10 of IC50": 0.92}
{"compound": "C[C@@H]1C(=O)NCCN1C(=O)NC(c1ccc(OC(F)(F)F)c(F)c1)c1cnc(C(F)(F)F)c(Cl)c1 (single isomer, unassigned) [Example 21A]", "log10 of IC50": 0.16}
{"compound": "C[C@@H]1C(=O)NCCN1C(=O)NC(c1ccc(C(F)(F)F)nc1)c1ccc(F)c(Cl)c1F (single isomer, unassigned) [Example 15B]", "log10 of IC50": 1.78}
